Molecular target: Tumour suppressor protein p53/Mdm4 (Homo sapiens, UniProt O15151+P04637)
Sequence (P04637 whole entry): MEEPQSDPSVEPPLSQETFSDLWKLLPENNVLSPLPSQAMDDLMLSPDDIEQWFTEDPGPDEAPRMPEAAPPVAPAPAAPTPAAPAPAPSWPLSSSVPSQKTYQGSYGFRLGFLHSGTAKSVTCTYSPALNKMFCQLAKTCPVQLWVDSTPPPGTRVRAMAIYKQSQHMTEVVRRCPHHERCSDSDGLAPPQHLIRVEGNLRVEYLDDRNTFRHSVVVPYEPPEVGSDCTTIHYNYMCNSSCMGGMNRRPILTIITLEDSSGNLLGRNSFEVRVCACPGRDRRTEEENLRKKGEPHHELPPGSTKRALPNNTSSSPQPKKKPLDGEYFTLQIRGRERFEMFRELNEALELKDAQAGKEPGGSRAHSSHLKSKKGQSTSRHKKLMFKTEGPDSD
Sequence (O15151 whole entry): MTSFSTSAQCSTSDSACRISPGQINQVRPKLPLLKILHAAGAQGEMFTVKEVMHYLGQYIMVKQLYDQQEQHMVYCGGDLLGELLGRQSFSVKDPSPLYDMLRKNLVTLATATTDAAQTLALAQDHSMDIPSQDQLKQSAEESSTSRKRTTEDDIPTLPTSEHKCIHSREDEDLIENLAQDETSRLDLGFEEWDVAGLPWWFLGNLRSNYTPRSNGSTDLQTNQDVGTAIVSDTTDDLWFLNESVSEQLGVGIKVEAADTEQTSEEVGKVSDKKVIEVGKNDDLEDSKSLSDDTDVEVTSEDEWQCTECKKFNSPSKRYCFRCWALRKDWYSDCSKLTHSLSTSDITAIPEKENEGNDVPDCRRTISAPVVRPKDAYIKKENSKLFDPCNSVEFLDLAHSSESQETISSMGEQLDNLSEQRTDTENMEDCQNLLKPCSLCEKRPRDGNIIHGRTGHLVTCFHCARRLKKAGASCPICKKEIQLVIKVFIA
Experiment: Binding affinity to MDM4/p53 interaction (unknown origin) assessed as inhibition constant
ENDPOINT: pKi
Value format note: pKi is -log10 of concentration (mol/L); just state the number.

Endpoint output: pKi of "O=C1/C(=C/c2cccc(Cl)c2)c2ccccc2N1S(=O)(=O)c1cccc(Cl)c1" . Value?
7.51
